Hello, the source for this data is patent US9879024B2, in case you need it.

Assay: Equilibrium solubility of Form A at room temperature in solvents and aqueous buffers
Format: physicochemical
Conditions: simulated gastric fluid, thermodynamic from solid, pH 1.1 (glycine HCl buffer), read-out: Solubility at R.T.
value_kind: solubility (mg/mL)
Numbers only, in mg/mL.

solubility for C[N+]1(CC2CC2)CC[C@]23c4c5ccc(O)c4O[C@H]2C(=O)CC[C@@]3(O)[C@H]1C5.[Br-] (stereo partly drawn) [Form A, (R)-N-methylnaltrexone bromide] is 70.1

====

Assay: Equilibrium solubility of Form A at room temperature in solvents and aqueous buffers
Type: physicochemical
Conditions: saline or isotonic, thermodynamic from solid, 5% Dextrose, stirred overnight, read-out: Solubility at R.T.
value_kind: solubility (mg/mL)
One number for each entry, in mg/mL.

solubility for C[N+]1(CC2CC2)CC[C@]23c4c5ccc(O)c4O[C@H]2C(=O)CC[C@@]3(O)[C@H]1C5.[Br-] (stereo partly drawn) [Form A, (R)-N-methylnaltrexone bromide] is 61.3

====

Assay: Equilibrium solubility of Form A at room temperature in solvents and aqueous buffers
Assay type: physicochemical
Settings: thermodynamic from solid, Water for injection, stirred overnight, read-out: Solubility at R.T.
value_kind: solubility (mg/mL)
One number for each entry, in mg/mL.

solubility for C[N+]1(CC2CC2)CC[C@]23c4c5ccc(O)c4O[C@H]2C(=O)CC[C@@]3(O)[C@H]1C5.[Br-] (stereo partly drawn) [Form A, (R)-N-methylnaltrexone bromide] is 73.5

====

Assay: Equilibrium solubility of Form A at room temperature in solvents and aqueous buffers
Type: physicochemical
Details: aqueous buffer, thermodynamic from solid, pH 9.1 (glycine buffer), read-out: Solubility at R.T.
value_kind: solubility (mg/mL)
One number for each entry, in mg/mL.

solubility for C[N+]1(CC2CC2)CC[C@]23c4c5ccc(O)c4O[C@H]2C(=O)CC[C@@]3(O)[C@H]1C5.[Br-] (stereo partly drawn) [Form A, (R)-N-methylnaltrexone bromide] is 71.1

====

Experiment: Solubility of Form A at 37° C. under conditions that simulate the human GI tract (HPLC of filtrate)
Assay type: physicochemical
Details: pH 1, simulated gastric fluid, thermodynamic from solid; 0.1N HCl; 37° C. overnight
value_kind: solubility (mg/mL)
One number for each entry, in mg/mL.

solubility for C[N+]1(CC2CC2)CC[C@]23c4c5ccc(O)c4O[C@H]2C(=O)CC[C@@]3(O)[C@H]1C5.[Br-] (stereo partly drawn) [Form A, (R)-N-methylnaltrexone bromide] is 101

====

Test: Equilibrium solubility of Form A at room temperature in solvents and aqueous buffers
Format: physicochemical
Details: organic solvent or mixture, thermodynamic from solid, Benzyl alcohol, stirred overnight, read-out: Solubility at R.T.
value_kind: solubility (mg/mL)
Give bare numbers, in mg/mL.

solubility for C[N+]1(CC2CC2)CC[C@]23c4c5ccc(O)c4O[C@H]2C(=O)CC[C@@]3(O)[C@H]1C5.[Br-] (stereo partly drawn) [Form A, (R)-N-methylnaltrexone bromide] is 85.5

====

Assay: Equilibrium solubility of Form A at room temperature in solvents and aqueous buffers
Type: physicochemical
Details: saline or isotonic, thermodynamic from solid, Normal saline (0.9% NaCl), stirred overnight, read-out: Solubility at R.T.
value_kind: solubility
Please make sure the unit comes right after the number.

solubility for C[N+]1(CC2CC2)CC[C@]23c4c5ccc(O)c4O[C@H]2C(=O)CC[C@@]3(O)[C@H]1C5.[Br-] (stereo partly drawn) [Form A, (R)-N-methylnaltrexone bromide] is 59.7 mg/mL
